System: KM12
Test: NCI tumour cell line growth inhibition, 48 h
Calls of active or inactive are those of the source. Cut-off read from the data, not from the text of the source: active = GI50 up to about 1.1 µM and inactive = higher.
property label: GI50

O=C1NC2(CCCCC2)C2=C1CCCCC2 ... > 100 µM (inactive)

Ask: Report measured GI50; entry is O=C1N/C(=N/N=C/c2c[nH]c3ccccc23)N/C1=C\c1c[nH]c2ccccc12
Result: 21 µM (inactive)

Ask: Report measured GI50; entry is COc1ccc(N2C(=O)C3c4[nH]c5ccccc5c4C4CCC(c5ccccc5)CC4C3C2=O)cc1 (stereo not drawn)
Result: > 70.5 µM (inactive)

Ask: Report measured GI50; entry is O=C1NCC2(CCN(Cc3ccccc3)CC2)N1
Result: > 100 µM (inactive)

Ask: Report measured GI50; entry is CN(C(=O)C12C3C4C1C1C2C3C41C(O)C(C)(C)C)C(C)(C)C (stereo not drawn)
Result: > 100 µM (inactive)

Ask: Report measured GI50; entry is CCOC(=O)c1c(N2CCCC2)[nH]c(=O)c(C(c2ccco2)c2c(O)c(C(=O)OCC)c(N3CCCC3)[nH]c2=O)c1O
Result: > 100 µM (inactive)

Ask: Report measured GI50; entry is COc1ccc(-c2c(C#N)c(O)n(C3OC(COC(C)=O)C(OC(C)=O)C(OC(C)=O)C3OC(C)=O)c(=S)c2C#N)cc1 (stereo not drawn)
Result: 65.9 µM (inactive)

Ask: Report measured GI50; entry is O=C(Cc1ccc(OCc2cccc(Cl)c2)cc1)NO
Result: 27.6 µM (inactive)

Ask: Report measured GI50; entry is Cc1ccc(S(=O)(=O)N2CC(CCN)c3ccccc32)cc1 (stereo not drawn)
Result: 6.03 µM (inactive)

Ask: Report measured GI50; entry is O=C(NC1CCC[C@H]1OC(=O)c1ccccc1)c1ccccc1 (stereo partly drawn)
Result: 69.8 µM (inactive)

Ask: Report measured GI50; entry is O=C(O)c1ccc([N+](=O)[O-])c(P(=O)(O)O)c1
Result: > 100 µM (inactive)

Ask: Report measured GI50; entry is O=C1/C(=C/c2cccs2)NC(=S)N1CN1CCCCC1
Result: > 100 µM (inactive)

Ask: Report measured GI50; entry is C=Cc1ccc(C)[n+](C[Si](C)(C)O[Si](C)(C)C[n+]2cc(C=C)ccc2C)c1
Result: > 100 µM (inactive)

###

Each entry below lists one item and its recorded GI50 value.
System: SW-620
Experiment: NCI tumour cell line growth inhibition, 48 h
The source made the active and inactive calls. No stated cut-off is given here; in the data, active = GI50 up to about 1.1 µM and inactive = higher.

CN(CCNC(=S)c1cn(C)c2c1ccc1ccccc12)CCNC(=S)c1cn(C)c2c1ccc1ccccc12 ... > 100 µM (inactive)
CC(C)NC(=O)O/N=C1\CCC2[C@@H]3CC=C4C[C@@H](OC(=O)NC(C)C)CC[C@]4(C)C3CC[C@]12C (stereo not given in full) ... 1.79 µM (inactive)
COc1ccc2c(c1)CC1Cc3ccccc3CCN1C2 (stereo not given) ... 76 µM (inactive)
O=C1C(Cl)=C(N2C(=O)CCC2=O)C(=O)c2ccccc21 ... 23.1 µM (inactive)

// next entry
Ask: Please report the measured GI50 for CCCCOCCOC1=CC(=O)c2c(O)ccc(O)c2C1=O tested on SW-620.
Result: 1.45 µM (inactive)

###

Each entry below lists one item and its recorded GI50 value.
System: 786-0
Experiment: NCI tumour cell line growth inhibition, 48 h
Calls of active or inactive are those of the source. Cut-off read from the data, not from the text of the source: active = GI50 up to about 1.1 µM and inactive = higher.

Ask: Report measured GI50; entry is COc1ccc(N2C(=O)C3c4[nH]c5ccccc5c4C4CCC(c5ccccc5)CC4C3C2=O)cc1 (centres undefined)
Result: 7.76 µM (inactive)

Ask: Report measured GI50; entry is Cc1ccc(C)c(NC(=O)c2cccc([N+](=O)[O-])c2O)c1
Result: 44.1 µM (inactive)

Ask: Report measured GI50; entry is CN(C)CCNC(=O)c1cccc2ccc(-c3ccc(-c4ccccc4)cc3)nc12
Result: 1.79 µM (inactive)

Ask: Report measured GI50; entry is Cc1ccccc1N(CCC#N)C1=NN(C(=O)CC(=O)Nc2ccc(Cl)cc2)C(c2ccccc2)C1 (centres undefined)
Result: > 100 µM (inactive)
